Below, each entry is listed alongside its reported melting point.

- O=C(O)CCCNC1=NS(=O)(=O)c2ccccc21: 200 to 202 °C

Tell me the measured melting point of CCCCCC(C)N(CCCC)c1ccc(C2=C(C#N)C(=C(C#N)C#N)NC2=O)cc1 (stereo not given) , please.
180 °C

###

Below, each entry is listed alongside its reported melting point.

Example compounds with recorded melting point:
- CCOC(=O)CCNCC(O)COc1cccc(C#N)c1 (stereo unspecified): 95 °C
- COC(=O)CCc1ccc(-n2ncn(-c3ccc(C(=N)NC(=O)OC)cc3)c2=O)cc1: 296 to 298 °C
- C=C(CN(C)C)C(O)c1ncc2c(c1O)COC2(C)c1ccccc1 (stereo unspecified): 178 to 179 °C
- COc1cc(CBr)c(OC)cc1Cl: 85 to 88 °C
- CC(=O)OC1(C)CCCCC1C1CCCCC1 (stereo unspecified): 35 °C

Continue with the compound presented below.
Tell me the measured melting point of CCOC(C)O[C@H]1C(=O)N[C@H]1c1ccccc1 (stereo partly specified) , please.
78 to 80 °C

###

Below, each entry is listed alongside its reported melting point.

Tell me the measured melting point of O=C(Nc1ccc(OC(F)(F)F)c(Br)c1)C(F)(F)F , please.
64 to 66 °C

Next record, please: COc1ccc(CN2C(=O)C(O)(c3cc(CO)ccc3Cl)c3cc(Cl)ccc32)c(OC)c1 (stereo not given)
107 °C

Next record, please: O=C(CCc1ccccc1)N[C@H](Cc1ccc(C(F)(F)F)cc1)[C@@H](O)c1cccc(Oc2ccccc2)c1 (racemic)
134 to 135 °C

Next record, please: CC(C)(C)NC(=O)c1ccc(C(F)(F)F)cc1
146 to 148 °C

Next record, please: N#Cc1ccc(OCc2ccncc2)cc1F
132 to 133 °C

###

MEASUREMENT TYPE: melting point (°C)

[1] CCCCCCCCCCC(NC(=O)NC12CC3CC(CC(C3)C1)C2)C(=O)OC (stereo not given)
[2] O=C(O)[C@H](Cc1ccc([N+](=O)[O-])cc1)NC1=CC(=O)C12CCCCC2
Of the two listed items, which has the higher melting point? First: 1 Second: 2 The response must carry the label of the picked entry.
2

###

MEASUREMENT TYPE: melting point

Example compounds with recorded melting point:
* CSC1NC(=O)N(c2cccc(C(F)(F)F)c2)C(=O)N1 | 225 to 228 °C
* COc1ccc(-n2nc(C(F)(F)F)nc2-c2ccc(S(N)(=O)=O)cc2)cc1 | 228 °C
* Cc1ccc(N2C(=O)C(O)=C(C(=O)c3ccc(C(C)C)cc3)C2c2ccc(OCCN3CCOCC3)cc2)nn1 (centres undefined) | 256 °C

Tell me the measured melting point of CCCNS(=O)(=O)c1cc2cc(P(=O)(O)O)c(=O)[nH]c2cc1Cl , please.
> 300 °C

Next record, please: CCCCCCC(=N)NC(=S)Nc1ccc(Cl)c(Cl)c1
89 to 90 °C

Next record, please: CC(COc1ccc(C(=O)O)c(O)c1)C[Si](C)(O[Si](C)(C)C)O[Si](C)(C)C (centres undefined)
117 to 118 °C

###

Below, each entry is listed alongside its reported melting point.

- CCCCCCCCCCCCCCCCCCCCCCOC(=O)P(=O)(O)O: 92 to 93 °C

Tell me the measured melting point of CN(C)Cc1ccc(CSCCNC(=S)NC(=O)c2ccccc2)o1 , please.
83 to 85 °C

Next record, please: CCC(=S)c1ccc(NS(C)(=O)=O)c(Oc2ccc(F)cc2F)c1
74 to 76 °C
